Each recorded value in this set is attributed to the supplement of paper PMC10567573.

B1: ZNF263 (parent)
chain: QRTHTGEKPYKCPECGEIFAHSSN

Variants of: B1
ASSAY_INFO: protein stability index of a GFP-peptide fusion (GPS, HEK-293T) (PSI 1-6); higher = more stable;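 also: lentivirally expressed fusions sorted by FACS into six bins by GFP to DsRed ratio, PSI derived from sequencing read proportions per bin multiplied by bin number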
EXPERIMENTAL_CONTEXT: c terminus: a fixed tail appended
MEASURED_ENDPOINT: protein stability index
Give bare numbers.

>  <MUTATIONS>
G6I

>  <protein stability index>
2.98

$$$$
>  <MUTATIONS>
A20R

>  <protein stability index>
2.93

$$$$

Please give protein stability index for each item listed below.
1. K8V
2. H4I
3. H4A
4. E17W
5. K11M
6. E7T

**A:**
1: 3; 2: 3.01; 3: 2.92; 4: 3.01; 5: 2.97; 6: 3.01

Please give protein stability index for each item listed below.
1. H4W
2. A20W
3. E14V
4. P9Y
5. K11Y

**A:**
1: 3.08; 2: 3.07; 3: 2.95; 4: 2.99; 5: 3.03
